B1: Caulobacter ParB omega fusion; a variant is named by its letters at X, in order, B8GW30 (parent)
chain: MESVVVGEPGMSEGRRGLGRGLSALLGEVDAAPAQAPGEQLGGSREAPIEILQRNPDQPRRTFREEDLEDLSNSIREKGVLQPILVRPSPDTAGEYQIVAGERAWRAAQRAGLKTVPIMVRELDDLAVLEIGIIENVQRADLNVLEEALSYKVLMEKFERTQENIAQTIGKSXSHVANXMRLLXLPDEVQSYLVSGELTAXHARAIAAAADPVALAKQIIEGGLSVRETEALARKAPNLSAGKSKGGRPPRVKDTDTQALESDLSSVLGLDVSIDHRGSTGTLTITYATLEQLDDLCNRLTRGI

Variants of: B1
Experiment: one-hybrid fitness for binding parS DNA (scaled: cognate 1, non-cognate 0); higher = stronger binding
Details: with parS DNA site
Whole data set: some 81,000 sequences, median “one-hybrid fitness for binding parS DNA” near -0.17, cut for the highest 2% near 0.51. The sample holds the highest values, similar sequences and a random draw of the others, so the mix is not that of the screen.
Would you kindly list one-hybrid fitness for binding parS DNA for each of these variants?

Example cases with answers are listed next.
INSERT INTO assay_data (change, recorded_value) VALUES
  ('VDMS', '≤ 0.2'),
  ('QTLN', '≤ 0.2'),
  ('RGWG', 0.51),
  ('REAA', '≤ 0.2'),
  ('RMAA', 0.59),
  ('EWYS', '≤ 0.2'),
  ('SMCS', '≤ 0.2'),
  ('LRVT', '≤ 0.2'),
  ('RKTT', 0.754),
  ('RNSH', '≤ 0.2');

Please go through the list and note one-hybrid fitness for binding parS DNA for each variant.
1. PGKV
2. RDVG
3. RNWQ
4. RNGN

Result block:
1. ≤ 0.2
2. ≤ 0.2
3. ≤ 0.2
4. 0.242

Please go through the list and note one-hybrid fitness for binding parS DNA for each variant.
1. YRHE
2. HTAP
3. TRWL
4. RNVC
5. KYTC
6. RQMM
7. GVCA

Result block:
≤ 0.2
≤ 0.2
≤ 0.2
0.599
≤ 0.2
0.33
≤ 0.2

Please go through the list and note one-hybrid fitness for binding parS DNA for each variant.
1. GLTC
2. MSRC
3. RFTD
4. RQMQ
5. AMKF
6. CQGA
7. TGRK
8. DFTT

Result block:
≤ 0.2
≤ 0.2
≤ 0.2
≤ 0.2
≤ 0.2
≤ 0.2
≤ 0.2
≤ 0.2

The values you see were collected from a collection of fitness landscapes (doi:10.1016/j.celrep.2020.107928).
